# system: Transient receptor potential cation channel subfamily M member 8 (Homo sapiens, UniProt Q7Z2W7)
# Sequence (Q7Z2W7 whole entry): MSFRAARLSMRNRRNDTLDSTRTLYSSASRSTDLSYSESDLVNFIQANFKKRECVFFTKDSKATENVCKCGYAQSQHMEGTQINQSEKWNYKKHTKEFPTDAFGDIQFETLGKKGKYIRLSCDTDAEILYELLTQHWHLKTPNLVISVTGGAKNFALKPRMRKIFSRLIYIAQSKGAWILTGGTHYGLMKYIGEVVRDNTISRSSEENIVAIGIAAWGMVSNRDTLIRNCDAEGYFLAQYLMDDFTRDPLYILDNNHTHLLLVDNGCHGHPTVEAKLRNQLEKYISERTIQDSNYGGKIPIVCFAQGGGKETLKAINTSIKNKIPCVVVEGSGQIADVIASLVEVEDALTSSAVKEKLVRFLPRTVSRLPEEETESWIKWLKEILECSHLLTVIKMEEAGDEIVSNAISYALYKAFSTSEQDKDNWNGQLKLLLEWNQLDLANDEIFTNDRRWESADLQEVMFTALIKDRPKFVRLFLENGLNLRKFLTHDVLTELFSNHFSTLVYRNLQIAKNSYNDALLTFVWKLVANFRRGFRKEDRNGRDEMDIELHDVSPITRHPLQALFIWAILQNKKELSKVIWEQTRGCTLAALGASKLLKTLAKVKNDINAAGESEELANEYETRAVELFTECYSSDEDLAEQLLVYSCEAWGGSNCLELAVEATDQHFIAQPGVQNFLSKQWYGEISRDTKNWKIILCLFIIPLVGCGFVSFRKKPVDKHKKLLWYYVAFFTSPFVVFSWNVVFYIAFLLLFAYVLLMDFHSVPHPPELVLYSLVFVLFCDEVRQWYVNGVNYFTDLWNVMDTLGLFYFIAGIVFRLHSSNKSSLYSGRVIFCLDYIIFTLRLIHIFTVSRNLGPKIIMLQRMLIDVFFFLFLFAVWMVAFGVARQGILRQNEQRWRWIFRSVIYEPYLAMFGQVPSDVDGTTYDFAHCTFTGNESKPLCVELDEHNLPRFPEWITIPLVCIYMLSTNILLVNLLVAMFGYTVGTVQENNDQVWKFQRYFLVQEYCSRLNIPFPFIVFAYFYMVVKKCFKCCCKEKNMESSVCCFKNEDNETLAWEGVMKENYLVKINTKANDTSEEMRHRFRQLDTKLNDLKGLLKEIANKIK
# runDescription: Activation of TRPM8 channel
measuredEndpoint: pEC50
Reminder that pEC50 means the negative base-10 logarithm of the concentration expressed in mol/L.

Noted for O=C1NC(c2cccc([N+](=O)[O-])c2)=CCN1c1ccccc1O [ICILLIN] : its pEC50 reads 7.22

---

# system: Transient receptor potential cation channel subfamily A member 1 (Homo sapiens, UniProt O75762)
# Sequence (O75762 whole entry): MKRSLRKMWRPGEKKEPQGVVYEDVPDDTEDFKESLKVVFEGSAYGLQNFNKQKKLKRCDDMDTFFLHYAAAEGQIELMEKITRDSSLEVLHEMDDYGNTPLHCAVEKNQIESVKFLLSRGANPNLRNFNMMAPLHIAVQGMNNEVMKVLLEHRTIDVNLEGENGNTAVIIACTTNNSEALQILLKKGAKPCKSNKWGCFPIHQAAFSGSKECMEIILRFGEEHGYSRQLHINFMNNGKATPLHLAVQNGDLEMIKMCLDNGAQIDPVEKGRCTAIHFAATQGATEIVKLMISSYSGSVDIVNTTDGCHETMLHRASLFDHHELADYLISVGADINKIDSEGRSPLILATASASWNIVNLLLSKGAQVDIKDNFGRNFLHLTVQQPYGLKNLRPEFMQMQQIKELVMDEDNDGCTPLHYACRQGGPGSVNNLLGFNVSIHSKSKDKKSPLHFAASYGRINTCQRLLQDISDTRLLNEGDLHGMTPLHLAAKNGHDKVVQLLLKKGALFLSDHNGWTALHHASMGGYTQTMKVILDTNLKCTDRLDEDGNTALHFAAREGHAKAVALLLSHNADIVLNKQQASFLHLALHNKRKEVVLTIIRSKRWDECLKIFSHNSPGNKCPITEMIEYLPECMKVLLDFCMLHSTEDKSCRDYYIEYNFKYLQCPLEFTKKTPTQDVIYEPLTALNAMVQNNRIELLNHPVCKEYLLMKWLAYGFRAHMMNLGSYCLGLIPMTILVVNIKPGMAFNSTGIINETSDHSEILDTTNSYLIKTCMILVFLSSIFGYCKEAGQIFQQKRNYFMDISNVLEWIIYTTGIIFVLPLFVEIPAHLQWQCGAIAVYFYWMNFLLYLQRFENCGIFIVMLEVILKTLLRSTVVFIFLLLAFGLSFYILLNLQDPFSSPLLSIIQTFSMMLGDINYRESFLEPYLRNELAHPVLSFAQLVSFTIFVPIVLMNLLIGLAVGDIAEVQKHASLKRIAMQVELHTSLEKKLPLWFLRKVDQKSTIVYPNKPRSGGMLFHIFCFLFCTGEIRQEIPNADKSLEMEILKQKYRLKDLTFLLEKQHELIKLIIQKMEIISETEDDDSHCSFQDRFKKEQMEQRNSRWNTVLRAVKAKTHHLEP
# runDescription: Agonist activity at human TRPA1 channel expressed in CHO cells assessed as increase in intracellular calcium levels
# Format: functional, cell-based
Classify on EC50 using lower bin: < 0.5 µM; middle bin: ≥ 0.5 µM and < 5 µM; upper bin: ≥ 5 µM

Here are 7 molecules together with their reported answers.
# molecule, answerLabel
measured = [
    ("C=CCSCC=C [DIALLYL SULFIDE]", "upper bin"),
    ("CCN(CC)C(=S)SSC(=S)N(CC)CC", "middle bin"),
    ("CC(C)=CCC/C(C)=C/CC/C(C)=C/CSCC(=O)O", "upper bin"),
    ("CC1(C)CCC[C@]2(C)[C@@H](C=O)C(C=O)=CC[C@@H]12", "lower bin"),
    ("CCCCC(CC)C1NC(=O)N(SC(Cl)(Cl)Cl)C1=O (stereo not given)", "middle bin"),
    ("CC1(C)CCC[C@]2(C)[C@@H](CC/C=C(/C=O)CC=O)[C@@H](C=O)CC[C@@H]12", "lower bin"),
    ("C=CCSSCC=C", "upper bin"),
]

Field: next molecule
Q: Looking at CC1(C)CCC[C@@]2(C)[C@H]1CC[C@@]1(CO1)[C@@H]2CC/C=C(/C=O)CC=O , which class would you pick?
A: lower bin

---

# system: Transient receptor potential cation channel subfamily A member 1 (Homo sapiens)
# runDescription: Agonist activity at human TRPA1 channel expressed in HEK293 cells assessed as increase in membrane currents
# Format: functional, cell-based
measuredEndpoint: log10 of EC50 (log10 of the value in µM)
Transform log10 | Measure EC50 | Unit µM

// solved cases for log10 of EC50 follow
# smiles, log10 of EC50
measured = [
    ("NC(=O)/C=C1/C(=O)N(CC2CCCC2)c2c(F)cccc21", -0.18),
    ("O=C(O)/C=C1/C(=O)N(Cc2ccccc2)c2ccc(F)cc21", 0.65),
    ("O=C(O)/C=C1/C(=O)N(CC2CCC2)c2c(F)cccc21", 0.06),
    ("O=C(O)/C=C1/C(=O)N(CC2CCCC2)c2c(F)cccc21", -0.29),
    ("CC(C)CN1C(=O)/C(=C/C(=O)O)c2cc(F)ccc21", 0.67),
    ("CCC(CC)CN1C(=O)/C(=C/C(=O)N2CCOCC2)c2cccc(F)c21", 0.11),
    ("COC(=O)c1cccc(CN2C(=O)/C(=C/C(N)=O)c3ccccc32)c1", 0.08),
    ("O=C1/C(=C/c2nccs2)c2ccccc2N1Cc1ccccc1", 0.75),
    ("O=C(O)/C=C1/C(=O)N(CC2CCCC2)c2ccccc21", 0.48),
    ("CC(C)CN1C(=O)/C(=C/C(=O)O)c2cccc(Cl)c21", -0.21),
]

Noted for CN(C)C(=O)/C=C1/C(=O)N(CC2CCCC2)c2c(F)cccc21 : its log10 of EC50 reads 0.58

Noted for O=C(O)/C=C1/C(=O)N(CC2CCCCC2)c2ccccc21 : its log10 of EC50 reads 0.64

Noted for CC(C)CN1C(=O)/C(=C/C(=O)O)c2cccc(F)c21 : its log10 of EC50 reads -0.08

Source listed as ChEMBL document CHEMBL1155439.
